pKd values by entry
Molecular target: T1, GmPOPB_S577A (Galerina marginata), H2E7Q8
T1 chain: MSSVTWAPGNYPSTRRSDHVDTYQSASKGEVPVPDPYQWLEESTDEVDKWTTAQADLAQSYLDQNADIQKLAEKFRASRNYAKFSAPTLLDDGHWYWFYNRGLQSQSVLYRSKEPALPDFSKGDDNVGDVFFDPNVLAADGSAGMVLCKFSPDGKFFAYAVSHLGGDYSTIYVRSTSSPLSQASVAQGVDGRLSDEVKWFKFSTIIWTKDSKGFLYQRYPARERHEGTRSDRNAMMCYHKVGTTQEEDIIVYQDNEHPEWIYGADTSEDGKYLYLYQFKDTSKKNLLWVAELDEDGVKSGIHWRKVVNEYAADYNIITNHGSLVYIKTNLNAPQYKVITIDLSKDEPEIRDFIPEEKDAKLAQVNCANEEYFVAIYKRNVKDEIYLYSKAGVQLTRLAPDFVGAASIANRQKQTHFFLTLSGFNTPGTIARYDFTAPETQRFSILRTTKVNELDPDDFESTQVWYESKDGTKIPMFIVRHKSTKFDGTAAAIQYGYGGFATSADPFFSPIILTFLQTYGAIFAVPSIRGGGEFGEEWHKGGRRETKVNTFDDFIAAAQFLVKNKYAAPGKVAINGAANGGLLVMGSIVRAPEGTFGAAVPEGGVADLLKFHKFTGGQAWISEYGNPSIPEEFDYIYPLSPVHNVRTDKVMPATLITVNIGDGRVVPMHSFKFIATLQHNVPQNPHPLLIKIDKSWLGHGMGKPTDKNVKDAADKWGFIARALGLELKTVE
Experiment: ITC, peptide titrated into GmPOPB_S577A, 20 C
Convention used: pKd is expressed as -log10 of the molar concentration.

{"Binder": "IWGIGCNPWTAEH (modifications not checked) [13mer truncated substrate]", "Quantitative Result": 5.62}
{"Binder": "IWGIGCNPWT (modifications not checked) [10mer truncated substrate]", "Quantitative Result": 4.08}
{"Binder": "IWGIGCNPWTAE (modifications not checked) [12mer truncated substrate]", "Quantitative Result": 4.68}
{"Binder": "IWGIGCNPWTA (modifications not checked) [11mer truncated substrate]", "Quantitative Result": 4.41}
{"Binder": "IWGIGCNPWTAEHV (modifications not checked) [14mer truncated substrate]", "Quantitative Result": 5.02}
{"Binder": "VDQTLASGNDIC (modifications not checked)", "Quantitative Result": 5.30}

Reported pKd ( TLASGNDIC (modifications not checked) ) = 3.92

Value source: patent US20200291444A1
